These data points were gathered from ChEMBL document CHEMBL4177717.

TARGET: 7-methylguanosine phosphate-specific 5'-nucleotidase (Homo sapiens, UniProt Q969T7)
Sequence (Q969T7 whole entry, the tested form may be a part): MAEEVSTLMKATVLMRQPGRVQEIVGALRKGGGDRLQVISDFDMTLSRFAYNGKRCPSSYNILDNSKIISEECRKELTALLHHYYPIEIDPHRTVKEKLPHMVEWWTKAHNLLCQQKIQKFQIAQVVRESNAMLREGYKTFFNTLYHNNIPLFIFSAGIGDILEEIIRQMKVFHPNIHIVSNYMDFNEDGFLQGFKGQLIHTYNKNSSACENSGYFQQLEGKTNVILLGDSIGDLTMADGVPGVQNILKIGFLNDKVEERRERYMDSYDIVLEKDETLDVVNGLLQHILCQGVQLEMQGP
ASSAY DETAILS: Inhibition of recombinant His6/SUMO-tagged human cN3B (1 to 300 residues) expressed in Escherichia coli BL21(DE3) RIL assessed as reduction in dephosphorylation of m7GMP substrate after 45 mins by HPLC method
VALUE TYPE: IC50

Enquiry: Fill blank: measured IC50 of the molecule C[n+]1cn([C@@H]2O[C@H](Cn3cc(P(=O)([O-])O)nn3)[C@@H](O)[C@H]2O)c2nc(N)[nH]c(=O)c21 is ____.
Return: 87.8 µM

###

TARGET: 7-methylguanosine phosphate-specific 5'-nucleotidase (Homo sapiens) (UniProt Q969T7)
ASSAY DETAILS: Inhibition of recombinant His6/SUMO-tagged human cN3B (1 to 300 residues) expressed in Escherichia coli BL21(DE3) RIL assessed as reduction in dephosphorylation of m7GMP substrate at 200 uM after 45 mins by HPLC method relative to control
Calls of active or inactive are those of the source. The rule behind the calls is not given here.
VALUE TYPE: inhibition

* C[n+]1cn([C@@H]2O[C@H](Cn3cc(CP(=O)([O-])O)nn3)[C@@H](O)[C@H]2O)c2nc(N)[nH]c(=O)c21 | inactive
* C[n+]1cn([C@@H]2O[C@H](Cn3cc(OCP(=O)([O-])O)nn3)[C@@H](O)[C@H]2O)c2nc(N)[nH]c(=O)c21 | inactive
* C[n+]1cn([C@@H]2O[C@H](Cn3cc(CCP(=O)([O-])O)nn3)[C@@H](O)[C@H]2O)c2nc(N)[nH]c(=O)c21 | inactive
* C[n+]1cn([C@@H]2O[C@H](Cn3cc(P(=O)([O-])O)nn3)[C@@H](O)[C@H]2O)c2nc(N)[nH]c(=O)c21 | 67%
